Data provenance: ChEMBL document CHEMBL1138163

# assay name: Half life in Beagle dog at 0.25 mg/kg, iv
# Assay type: ADME, organism-based, Canis lupus familiaris
# Set-up: dose 0.25 mg/kg, route intravenous
# test parameters: in vivo
parameter measured: half-life (h)

>>> df
                               given_smiles  endpoint_result
0  N#Cc1cnc(Nc2cc(N3CCN(CCN4CCOCC4)CC3)ncn2)s1             10.5

A: N#Cc1cnc(Nc2cc(N3CCN(CCN4CCCC4)CC3)ncn2)s1
B: N#Cc1cnc(Nc2cc(N3CCN(CCCN4CCOCC4)CC3)ncn2)s1
Prompt line: In terms of reported half-life, does A or B have the smaller number? State your choice using its label.
Response line: B

a: N#Cc1cnc(Nc2cc(N3CCC(N)CC3)ncn2)s1
b: COCCN1CCN(c2cc(Nc3ncc(C#N)s3)ncn2)CC1
Prompt line: Task for the reader: decide whether a or b has the larger half-life. State your choice using its label.
Response line: b
(b: 2 h, a: 1.34 h)

----------
# assay name: Clearance in dog at 1 mg/kg, iv and 1 mg/kg, po
# Format: ADME, organism-based, Canis lupus familiaris
# test parameters: in vivo
parameter measured: clearance (mL/min/kg)
Quick reminder: number only, in mL/min/kg, skip the unit.

Prompt line: Quick one: clearance for "N#Cc1cnc(Nc2cc(N3CCN(CCN4CCOCC4)CC3)ncn2)s1" ?
Response line: 4.11

----------
# assay name: Volume of distribution in dog at 1 mg/kg, iv and 1 mg/kg, po
# Assay type: ADME, organism-based, Canis lupus familiaris
# test parameters: in vivo, read-out: Vdss
parameter measured: Vd (L/kg)
Quick reminder: number only, in L/kg, skip the unit.

Prompt line: Quick one: Vd for "N#Cc1cnc(Nc2cc(N3CCN(CCN4CCOCC4)CC3)ncn2)s1" ?
Response line: 2.72

----------
# assay name: Oral bioavailability in rat at 10 mg/kg, po
# Type: ADME, organism-based
# test parameters: in vivo
parameter measured: bioavailability

Prompt line: Quick one: bioavailability for "N#Cc1cnc(Nc2cc(N3CCN(CCN4CCOCC4)CC3)ncn2)s1" ?
Response line: > 99%
